Assay read-out IC50 on Cytochrome P450 3A4 (Homo sapiens); records merged from the literature.

Using the record for "O=C(N[C@@H]1CC[C@@]2(S(=O)(=O)c3ccc(F)cc3)c3ccc(C(F)(C(F)(F)F)C(F)(F)F)nc3CC[C@@H]12)C1CCS(=O)(=O)CC1" , report its IC50.
> 20000 nM

Again, but for "O=C1Nc2ccccc2C2(CCN(C(=O)N[C@H](Cc3csc4ccccc34)C(=O)N3CCC(N4CCCCC4)CC3)CC2)O1"
< 1000 nM

Can you check OC(Cn1cnnn1)(c1ccc(F)cc1F)C(F)(F)c1ccc(C#Cc2ccc(C(F)(F)F)cc2)cn1 (centres undefined) next?
> 200000 nM

Can you check "C[C@@H]1CN(Cc2ccccc2)c2cnccc2[C@H](C)N1C(=O)NCc1ccccc1" next?
23 to 31 nM

====

The compounds below each have a reported pIC50 tested on Cytochrome P450 3A4 (Homo sapiens, UniProt P08684); the values come from various publications.
Sequence (P08684 whole entry): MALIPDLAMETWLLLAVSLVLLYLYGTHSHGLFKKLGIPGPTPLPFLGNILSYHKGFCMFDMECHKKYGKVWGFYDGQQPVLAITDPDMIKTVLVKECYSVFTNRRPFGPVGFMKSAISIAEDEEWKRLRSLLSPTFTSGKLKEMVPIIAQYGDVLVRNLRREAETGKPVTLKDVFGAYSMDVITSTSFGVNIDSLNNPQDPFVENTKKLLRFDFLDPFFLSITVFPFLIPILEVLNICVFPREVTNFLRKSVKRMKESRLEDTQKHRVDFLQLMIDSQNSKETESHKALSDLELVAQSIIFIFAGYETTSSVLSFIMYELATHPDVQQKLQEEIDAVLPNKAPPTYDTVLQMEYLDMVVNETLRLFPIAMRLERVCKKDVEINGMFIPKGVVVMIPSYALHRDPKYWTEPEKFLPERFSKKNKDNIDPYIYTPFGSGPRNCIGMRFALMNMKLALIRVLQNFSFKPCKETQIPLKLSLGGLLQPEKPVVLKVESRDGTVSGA
pIC50: −log10 of the molar value.

Any idea what pIC50 was measured for "Cc1cc2nn(Cc3cc([C@@H]4O[C@H](CO)[C@@H](O)[C@H](O)[C@H]4O)ccc3Cl)c(=O)n2cc1Cl" ?
< 4.96

How about this compound: "c1ccc(COc2cccc(-c3nc4sccn4c3-c3ccncn3)c2)cc1"
4.68

Lookup "O=C(CN1CCN(CCO)CC1)Nc1ccc(-c2cccc3c(=O)cc(N4CCOCC4)oc23)c2sc3ccccc3c12"
< 5.00

====

Below are IC50 values for Cytochrome P450 3A4 (Homo sapiens, UniProt P08684) collected from several publications.

IC50 lookup needed for "Cc1nc(-c2nnn(C)c2COC(=O)N(C)CC2CCC2)ccc1O[C@H]1CCC[C@H](C(=O)O)C1" , thanks.
> 40 µM

Further, for "COc1cc(-c2cccc(F)c2)c(Cl)cc1-c1nccc2cc(S(=O)(=O)Nc3cccnn3)ccc12" ?
> 27 µM

Same lookup for "COC(=O)N[C@@H](C)/C=C/c1cnc(Oc2ccc(OC(C)C)cc2)s1" , please.
> 20 µM

====

Record set: pIC50 | Cytochrome P450 3A4 (Homo sapiens, UniProt P08684) | literature, multiple sources.
pIC50: −log10 of the molar value.

Please look up its pIC50: "O=C(O)C[C@H]1COC2(CCN(c3ccc(-c4nc5cc(C(F)(F)F)ccc5[nH]4)cn3)CC2)C1"
< 4.30

Now this one: "C[C@H](C1=C(CCN(C)CC#N)Cc2ccccc21)c1cnccn1"
< 5.00

// next record "O=C(O)CCCOc1cccc(CCCCCCOc2cc(-c3cccc(F)c3)cc(-c3ccc4c(c3)OCO4)c2)c1CCC(=O)O"
< 5.12

Now consider "Cc1cc2c(NC(=O)N[C@@H]3CC(CF)(CF)Oc4c(F)cccc43)cccc2cn1" and answer again.
< 4.70

Same lookup for "CN(C)C(=O)CN(Cc1ccc(-c2ccc(Cl)cc2)cc1)C(=O)Cn1cc(Cc2cnn(C)c2)c(=O)nc1SCc1ccc(F)cc1" , please.
< 6.30

Now this one: "O=C(O)c1ccc2ccc(C(=O)c3ccccc3)c-2cc1"
< 4.30

Please answer likewise for "N[C@@H](CC(=O)N1CCN(C(=O)c2ccc(O)cc2)CC1)Cc1cc(F)c(F)cc1F"
6.00

And then "COc1cc(C(F)(F)F)ccc1-c1ncnc2cc(S(=O)(=O)Nc3nccs3)ccc12" , what is it?
< 4.30

One more compound: CCN(C)c1nc2ccc(C(=O)N(CC(C)C)CC(O)[C@H](Cc3cccnc3)NC(=O)OCc3cncs3)cc2o1 (single isomer, unassigned)
7.16

// repeat for "O=CN(O)[C@@H](CCCc1ncccn1)CS(=O)(=O)N1CCN(c2ccc(C(F)(F)F)cn2)CC1" and report
6.00

Cool, now Cc1csc2c1c(=O)n(CCc1ccccc1)c(=O)n2CC1CCCO1 (stereo in doubt; 7)
4.80

Entry "O=C(O)c1cc2cc(Br)cc(NCC3CCNCC3)c2o1" please
< 5.00

Also need "Nc1nc2ccc(OCc3ccccc3)cc2s1" , thanks.
4.60 to 5.00

Record: "CN1CCc2c(C(F)(F)F)nn(-c3ccc(CN4CCCC4=O)cc3)c2C1"
< 5.00
